Assay: Metabolic stability test: liver microsomal stability assay
Assay type: in vitro ADME, mouse
Settings: male, pH 7.4; mouse liver microsomes 0.5 mg protein/mL, compound 1 µM, presence of NADPH; read-out: Mouse Hepatic Microsome CLh,int NADPH(+)
Positions of bridges follow the written chain, without caps; N, C: chain ends. Non-standard residues stand in square brackets, D forms with d. Residues, ends and D or L forms follow the SMILES beside them. *: point of attachment. NMeF = CN[C@@H](Cc1ccccc1)C(=O)O; NMeT = CN[C@H](C(=O)O)[C@@H](C)O; hPhe = N[C@@H](CCc1ccccc1)C(=O)O; NMeL = CN[C@@H](CC(C)C)C(=O)O; NMeV = CN[C@H](C(=O)O)C(C)C; d(β3hA) = C[C@@H](N)CC(=O)O; NMeAbu = CC[C@H](NC)C(=O)O; NMeA = CN[C@@H](C)C(=O)O; Piperidide = C1CCN(*)CC1; dNMeA = CN[C@H](C)C(=O)O; Sar = CNCC(=O)O; tBu = CC(C)(C)*
Measured microsomal CLint at 1 µM values are reported for all entries that follow.
Express it in µL/min/mg; write the number only.

Compound	Units Symbol	microsomal CLint at 1 µM
CC[C@H]1C(=O)N[C@@H](COC(C)(C)C)C(=O)N(C)[C@@H](Cc2ccccc2)C(=O)N(C)[C@@H](C(C)C)C(=O)N[C@H](C)CC(=O)N(C)[C@H](C)C(=O)N(C)[C@@H](CC(C)C)C(=O)N(C)[C@@H](C(C)C)C(=O)N2CCC[C@H]2C(=O)N[C@@H](C(C)C)C(=O)N(C)[C@@H](Cc2ccccc2)C(=O)N[C@@H]([C@@H](C)O)C(=O)N(C)[C@@H](CC(C)C)C(=O)N(C)[C@@H](C)C(=O)N1C [pd058] (cyclo([NMeA][NMeAbu]S(tBu)[NMeF][NMeV][d(β3hA)][dNMeA][NMeL][NMeV]PV[NMeF]T[NMeL]))	µL/min/mg	16.3
CC(C)C[C@@H]1NC(=O)[C@@H]2CCCN2C(=O)[C@H](C(C)C)N(C)C(=O)[C@H](C)NC(=O)[C@H](CC(C)C)N(C)C(=O)[C@@H](C(C)C)NC(=O)C[C@@H](C(=O)N2CCCCC2)NC(=O)[C@H](C(C)C)N(C)C(=O)[C@H](C)NC(=O)[C@H](CC(C)C)N(C)C(=O)[C@H](C(C)C)NC(=O)[C@H](COC(C)(C)C)NC(=O)[C@H](CC(C)C)N(C)C(=O)[C@H](Cc2ccccc2)N(C)C1=O [pd014] ([dV][NMeL]A[NMeV]PL[NMeF][NMeL]S(tBu)V[NMeL]A[NMeV]D-Piperidide; lactam N-14)	µL/min/mg	31.1
CC(C)C[C@H]1C(=O)N2CCC[C@H]2C(=O)N(C)[C@@H](Cc2ccccc2)C(=O)N[C@@H](C(C)C)C(=O)N(C)[C@@H](C)C(=O)N(C)[C@@H](C(C)C)C(=O)N[C@H](C(=O)N2CCCCC2)CC(=O)N[C@H](C(C)C)C(=O)N(C)[C@@H]([C@@H](C)O)C(=O)N(C)[C@@H](CC(C)C)C(=O)N(C)[C@@H](C(C)C)C(=O)N(C)[C@@H](CC(C)C)C(=O)N[C@@H](CCc2ccccc2)C(=O)N(C)CC(=O)N1C [pd047] ([dV][NMeT][NMeL][NMeV][NMeL][hPhe][Sar][NMeL]P[NMeF]V[NMeA][NMeV]D-Piperidide; lactam N-14)	µL/min/mg	41.4

Entry CC(C)C[C@@H]1NC(=O)[C@H](CC(C)C)N(C)C(=O)[C@H](C(C)C)N(C)C(=O)[C@H](CCc2ccccc2)NC(=O)[C@H]([C@@H](C)O)N(C)C(=O)[C@@H](C(C)C)NC(=O)C[C@@H](C(=O)N2CCCCC2)NC(=O)[C@H](C(C)C)N(C)C(=O)[C@H](CC(C)C)NC(=O)[C@H](Cc2ccccc2)N(C)C(=O)[C@@H]2CCCN2C(=O)[C@H](CC(C)C)N(C)C(=O)CN(C)C1=O [pd107] ([dV][NMeT][hPhe][NMeV][NMeL]L[Sar][NMeL]P[NMeF]L[NMeV]D-Piperidide; lactam N-13) needs its microsomal CLint at 1 µM filled in; supply it.
36.3

Reference for the values: patent EP4768499A1
